This collection of values is drawn from patent US8822533B1.

- System: Mosquitoes, either Aedes aegypti (Liverpool) or Anopheles stephensi Liston
- test_protocol: K&D module in vitro bioassay: biting protection, knockdown and mortality
- Assay type: in vivo
- condition_notes: 2.5 nM\cm^2, K&D module
Please go through the items and note down their Not feeding 3 minutes (%).
Enter your answer as a number in %; do not include the unit.

[ask] Any idea what Not feeding 3 minutes (%) was measured for CC1(C)C(C=C(Cl)Cl)C1C(=O)OC(C#N)c1cccc(Oc2ccccc2)c1 (centres unmarked) [a-cypermethrin, reference compound] ?
[reply] 81

[ask] Also "CC(C)=C[C@@H]1[C@@H](C(=O)OCc2c(F)c(F)cc(F)c2F)C1(C)C" ?
[reply] 100

[ask] Here is the next compound: CC1(C)[C@H](C=C(Cl)Cl)[C@H]1C(=O)OCc1c(F)c(F)cc(F)c1F [Transfluthrin, transfluthrin]
[reply] 100

[ask] Subsequent entry: "CC(C)=C[C@@H]1[C@@H](C(=O)OCc2c(Cl)c(Cl)c(C)c(Cl)c2Cl)C1(C)C"
[reply] 98

[ask] Consider next the compound "COCc1c(Cl)c(Cl)c(COC(=O)[C@@H]2[C@@H](C=C(C)C)C2(C)C)c(Cl)c1Cl" in the same way.
[reply] 100

----------
So I've got a bunch of compounds here, and I need their Knockdown 24 hours (%) values.
- Tested on: Mosquitoes, either Aedes aegypti (Liverpool) or Anopheles stephensi Liston
- test_protocol: K&D module in vitro bioassay: biting protection, knockdown and mortality
- Assay type: in vivo
- condition_notes: 2.5 nM\cm^2, K&D module
// units = %; emit number, no label

[ask] Tell me the measured Knockdown 24 hours (%) of Cc1c(Cl)c(Cl)c(COC(=O)C2C(C=C(Cl)C(F)(F)F)C2(C)C)c(Cl)c1Cl (stereo not drawn) [TL-I-113] , please.
[reply] 9

[ask] For CC(C)=C[C@@H]1[C@@H](C(=O)OCc2c(F)c(F)cc(F)c2F)C1(C)C [TL-I-107] then?
[reply] 100

[ask] And Cc1c(F)c(F)c(COC(=O)[C@@H]2[C@@H](C=C(Cl)Cl)C2(C)C)c(F)c1F [TL-I-141] ?
[reply] 100

[ask] Moving on to the next compound: CC1(C)C(C=C(Cl)Cl)C1C(=O)OC(C#N)c1cccc(Oc2ccccc2)c1 (stereo not drawn) [a-cypermethrin, reference compound]
[reply] 100

[ask] Same thing, different compound: CC1(C)[C@H](C=C(Cl)Cl)[C@H]1C(=O)OCc1c(F)c(F)cc(F)c1F [Transfluthrin, transfluthrin]
[reply] 100

[ask] Please do the same for Cc1c(Cl)c(Cl)c(COC(=O)C2C(C=C(Cl)Cl)C2(C)C)c(Cl)c1Cl (stereo not drawn) [TL-I-111] as well.
[reply] 8

[ask] # iterate: CC(C)=C[C@@H]1[C@@H](C(=O)OCc2c(F)c(F)c(C)c(F)c2F)C1(C)C [TL-I-105]
[reply] 100

[ask] Here is the next compound: CC(C)=C[C@@H]1[C@@H](C(=O)OCc2c(Cl)c(Cl)c(C)c(Cl)c2Cl)C1(C)C [TL-I-109]
[reply] 6

[ask] Try the compound COCc1c(Cl)c(Cl)c(COC(=O)[C@@H]2[C@@H](C=C(C)C)C2(C)C)c(Cl)c1Cl [TL-I-73]
[reply] 100

----------
- System: Mosquitoes, either Aedes aegypti (Liverpool) or Anopheles stephensi Liston
- test_protocol: K&D module in vitro bioassay: biting protection, knockdown and mortality
- Type: in vivo
- condition_notes: 2.5 nM\cm^2, K&D module
Kindly return label 1 if reported Knockdown 1 hour (%) is no lower than 20%; return label 0 if it is lower.

[ask] Hello, I need to know if Cc1c(Cl)c(Cl)c(COC(=O)C2C(C=C(Cl)C(F)(F)F)C2(C)C)c(Cl)c1Cl (centres unmarked) [TL-I-113] has measured Knockdown 1 hour (%) not below 20%. Thanks!
[reply] label 0

[ask] Quick one: Cc1c(Cl)c(Cl)c(COC(=O)C2C(C=C(Cl)Cl)C2(C)C)c(Cl)c1Cl (centres unmarked) [TL-I-111]
[reply] label 0

[ask] What do we get for CC(C)=C[C@@H]1[C@@H](C(=O)OCc2c(Cl)c(Cl)c(C)c(Cl)c2Cl)C1(C)C [TL-I-109] ?
[reply] label 1

[ask] Try this compound next: COCc1c(Cl)c(Cl)c(COC(=O)[C@@H]2[C@@H](C=C(C)C)C2(C)C)c(Cl)c1Cl [TL-I-73]
[reply] label 1

[ask] Same again, this time with CC1(C)C(C=C(Cl)Cl)C1C(=O)OC(C#N)c1cccc(Oc2ccccc2)c1 (centres unmarked) [a-cypermethrin, reference compound]
[reply] label 1

----------
For each of the molecules below, state its Not feeding 3 minutes (%).
- Test system: Mosquitoes, either Aedes aegypti (Liverpool) or Anopheles stephensi Liston
- test_protocol: K&D module in vitro bioassay: biting protection, knockdown and mortality
- Format: in vivo
- condition_notes: 2.5 nM\cm^2, K&D module
Numeric answer only, unit % assumed.

[ask] Not feeding 3 minutes (%) lookup needed for Cc1c(Cl)c(Cl)c(COC(=O)C2C(C=C(Cl)C(F)(F)F)C2(C)C)c(Cl)c1Cl (stereo not shown) [TL-I-113] , thanks.
[reply] 76

[ask] And for Cc1c(F)c(F)c(COC(=O)[C@@H]2[C@@H](C=C(Cl)Cl)C2(C)C)c(F)c1F [TL-I-141] ?
[reply] 100

[ask] Next: CC(C)=C[C@@H]1[C@@H](C(=O)OCc2c(F)c(F)c(C)c(F)c2F)C1(C)C [TL-I-105]
[reply] 100

[ask] What do you get for Cc1c(Cl)c(Cl)c(COC(=O)C2C(C=C(Cl)Cl)C2(C)C)c(Cl)c1Cl (stereo not shown) [TL-I-111] ?
[reply] 90

----------
- Tested on: Ae. aegypti mosquitoes
- test_protocol: Sleeve bite protection assay on treated uniform fabric, mosquitoes
- Assay type: in vivo, Aedes aegypti (Orlando, 1952)
- condition_notes: ACU (50/50 NYCO) sleeve, glove on hand; concentrations as E1
Provide the reported Fed (%) of each item.
# value in %; strip the unit string

[ask] Fed (%) for CC(C)=C[C@@H]1[C@@H](C(=O)OCc2c(F)c(F)c(C)c(F)c2F)C1(C)C [TL-I-105] ?
[reply] 0.0

[ask] Likewise for CC1(C)[C@H](C=C(Cl)Cl)[C@H]1C(=O)OCc1c(F)c(F)cc(F)c1F [Transfluthrin, transfluthrin] ?
[reply] 0.0

[ask] Same for CC(C)=C[C@@H]1[C@@H](C(=O)OCc2c(F)c(F)cc(F)c2F)C1(C)C [TL-I-107]
[reply] 0.0

[ask] Further, for Cc1c(F)c(F)c(COC(=O)[C@@H]2[C@@H](C=C(Cl)Cl)C2(C)C)c(F)c1F [TL-I-141] ?
[reply] 0.0

[ask] Next compound up: CC1(C)C(C=C(Cl)Cl)C1C(=O)OCc1cccc(Oc2ccccc2)c1 (stereo not drawn) [Permethrin]
[reply] 0.0

[ask] Consider next the compound COCc1c(Cl)c(Cl)c(COC(=O)[C@@H]2[C@@H](C=C(C)C)C2(C)C)c(Cl)c1Cl [TL-I-73] in the same way.
[reply] 0.0

----------
- System: Ae. aegypti mosquitoes
- test_protocol: Sleeve bite protection assay on treated uniform fabric, mosquitoes
- Assay type: in vivo, Aedes aegypti (Orlando, 1952)
- condition_notes: ACU (50/50 NYCO) sleeve, glove on hand, 15 min; permethrin 0.118, transfluthrin 0.108, TL-I-107 0.107, TL-I-141 0.109, TL-I-105 0.107, TL-I-73 0.102 mg/cm^2
- Procedure: Biological Evaluation: Bite protection assays were conducted with laboratory-reared 7-12 day old mosquitoes or sand flies. […] The treatment occurred by dissolution of repellent in suitable quantity of acetone to saturate the clothing, but minimizing excess solution. Excess solution was quantified and this amount of excess was then used to calculate the estimated amount of repellent applied to the material. […]
Please go through the items and note down their Blood-fed #.

[ask] Report Blood-fed # for "CC(C)=C[C@@H]1[C@@H](C(=O)OCc2c(F)c(F)c(C)c(F)c2F)C1(C)C" tested on Ae. aegypti mosquitoes.
[reply] 0 #

[ask] And what about the molecule "COCc1c(Cl)c(Cl)c(COC(=O)[C@@H]2[C@@H](C=C(C)C)C2(C)C)c(Cl)c1Cl" ?
[reply] 0 #

[ask] What about CC1(C)[C@H](C=C(Cl)Cl)[C@H]1C(=O)OCc1c(F)c(F)cc(F)c1F [Transfluthrin, transfluthrin] ?
[reply] 0 #

[ask] One more molecule: "CC(C)=C[C@@H]1[C@@H](C(=O)OCc2c(F)c(F)cc(F)c2F)C1(C)C"
[reply] 0 #

[ask] Then what about the molecule CC1(C)C(C=C(Cl)Cl)C1C(=O)OCc1cccc(Oc2ccccc2)c1 (stereo not drawn) ?
[reply] 0 #

[ask] // same read-out, input: "Cc1c(F)c(F)c(COC(=O)[C@@H]2[C@@H](C=C(Cl)Cl)C2(C)C)c(F)c1F"
[reply] 0 #
